# TEST SYSTEM: Sigma non-opioid intracellular receptor 1 (Cavia porcellus, UniProt Q60492)
# Sequence (Q60492 whole entry): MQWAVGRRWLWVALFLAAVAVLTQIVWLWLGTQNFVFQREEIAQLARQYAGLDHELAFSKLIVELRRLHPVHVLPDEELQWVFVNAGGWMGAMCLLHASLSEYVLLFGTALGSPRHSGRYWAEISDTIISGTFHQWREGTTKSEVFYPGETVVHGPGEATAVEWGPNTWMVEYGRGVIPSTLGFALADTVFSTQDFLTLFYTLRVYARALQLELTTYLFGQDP
# TEST SUMMARY: Displacement of [3H]-(+)-pentazocine from sigma-1 receptor in guinea pig brain cortex after 120 mins by scintillation counting analysis
MEASUREMENT LABEL: Ki (nM)

>>> endpoint_value("c1ccc(CN2CCC3(CCCc4sccc43)C2)cc1 (stereo unspecified)")
29
>>> endpoint_value("c1ccc(CCN2CCC3(CCCc4sccc43)CC2)cc1")
277
>>> endpoint_value("c1cc2c(s1)CCCC21CCN(CC2CCCCC2)CC1")
4.3
>>> endpoint_value("CCCCN1CCC2(CCCc3sccc32)CC1")
6.3

A = c1ccc(CCCN2CCC3(CCCc4sccc43)CC2)cc1
B = c1ccc(CN2CCC3(CCCc4sccc43)CC2)cc1
Ask: Lower value for measured Ki? Options: A , B Your answer should be the label attached to the chosen record.
Reply: B
(B: 10.5 nM, A: 46 nM)

* * *

# TEST SYSTEM: Sigma non-opioid intracellular receptor 1 (Homo sapiens, UniProt Q99720)
# Sequence (Q99720 whole entry): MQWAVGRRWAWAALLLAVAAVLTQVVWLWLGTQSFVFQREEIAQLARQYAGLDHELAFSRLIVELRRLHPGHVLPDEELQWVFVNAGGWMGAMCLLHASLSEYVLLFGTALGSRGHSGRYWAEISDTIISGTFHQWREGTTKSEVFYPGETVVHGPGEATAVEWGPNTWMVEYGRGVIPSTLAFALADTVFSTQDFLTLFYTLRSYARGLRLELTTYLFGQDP
# TEST SUMMARY: Binding affinity to sigma-1 receptor (unknown origin)
MEASUREMENT LABEL: Ki (nM)

A = c1ccc(N2CCN(CCC3OCCc4c3cnn4-c3ccccc3)CC2)cc1 (configuration not stated)
B = CN(C)CCC1OCCc2c1cnn2-c1ccccc1 (configuration not stated)
Ask: Lower value for measured Ki? Options: A , B Your answer should be the label attached to the chosen record.
Reply: A

* * *

# TEST SUMMARY: Selectivity ratio of Ki for rat liver membrane sigma-2 receptor to Ki for guinea pig brain cortex sigma-1 receptor
MEASUREMENT LABEL: Ratio Ki

>>> endpoint_value("c1ccc(CCN2CCC3(CCCc4sccc43)CC2)cc1")
0.4
>>> endpoint_value("c1ccc(CCCN2CCC3(CCCc4sccc43)CC2)cc1")
4

I = c1cc2c(s1)CCCC21CCN(CC2CCCCC2)CC1
II = c1ccc(CN2CCC3(CCCc4sccc43)CC2)cc1
Ask: Lower value for measured Ratio Ki? Options: I , II Your answer should be the label attached to the chosen record.
Reply: I

* * *

# TEST SUMMARY: Displacement of [3H]-di-o-tolylguanidine from sigma-2 receptor in rat liver membranes after 120 mins by scintillation counting analysis
# Assay type: cell membranes, Membrane
pKi: −log10 of the molar value.
MEASUREMENT LABEL: pKi

Solved entries (count: 4):
>>> endpoint_value("c1ccc(CCCN2CCC3(CCCc4sccc43)CC2)cc1")
6.73
>>> endpoint_value("CCCCN1CCC2(CCCc3sccc32)CC1")
7.32
>>> endpoint_value("c1ccc(CN2CCC3(CCCc4sccc43)CC2)cc1")
6.76
>>> endpoint_value("c1ccc(CN2CCC3(CCCc4sccc43)C2)cc1 (stereo unspecified)")
6.89

I = c1ccc(CCN2CCC3(CCCc4sccc43)CC2)cc1
II = c1cc2c(s1)CCCC21CCN(CC2CCCCC2)CC1
Ask: Out of I and II , name the one with the higher pKi. Your answer should be the label attached to the chosen record.
Reply: II
